# Tested on: HepG2 (L1.3 5'UTR promoter firefly luciferase reporter)
# Experiment Summary: L1 promoter activity (FLuc/RLuc) relative to DMSO vehicle control (% of control); higher = stronger L1 promoter activation
# Condition Notes: concentration (uM unless unit written): 0.5; treatment time: 6 h
Test Readout: L1 promoter activity
Please respond with just the number, no unit label.

# query: L1 promoter activity of entry COc1cccc2c1C(=O)c1c(O)c3c(c(O)c1C2=O)C[C@@](O)(C(=O)CO)C[C@@H]3O[C@H]1C[C@H](N)[C@H](O)[C@H](C)O1
101

Try the compound c1ccc2c(c1)cc1ccc3cccc4ccc2c1c34
102

Try the compound CCOC(=O)C1=C(COCCN)NC(C)=C(C(=O)OC)C1c1ccccc1Cl (centres undefined) [Amlodipine besylate]
93.6

Try the compound C=C1[C@@H](C)[C@H]2[C@H](Cc3ccccc3)NC(=O)[C@]23[C@H](OC(C)=O)/C=C/[C@@](C)(O)C(=O)[C@@H](C)C/C=C/[C@H]3[C@@H]1O
101
